The origin of these recorded values is patent US20170189513A1.

Quick reference for peptide exchange yield among some binders
target: HLA-A*24 (human); test: UV-ligand exchange, b2m ELISA
Where no end group is shown, it is not given here.

INSERT INTO measurements (binder, result) VALUES
  ('TYLRDQHFL [… (SEQ ID No 187)]', '> 75%');

Qu. Quick check: peptide exchange yield of KYQDILETI [… (SEQ ID No 168)] ?
Ans. > 75%

Qu. Same thing, different binder: SYALLTYMI [… (SEQ ID No 192)]
Ans. > 75%

Qu. Same thing, different binder: NYINRILKL [… (SEQ ID No 167)]
Ans. > 75%

Qu. Same thing, different binder: VYEDQVGKF [… (SEQ ID No 170)]
Ans. 20 to 49%

Qu. Same thing, different binder: YFDKVVTL [YFDKVVTL (SEQ ID No 215)]
Ans. 20 to 49%

Qu. Same thing, different binder: KYPVEWAKF [… (SEQ ID No 289)]
Ans. > 75%

Qu. Same thing, different binder: QYLENLEKL [… (SEQ ID No 224)]
Ans. 50 to 75%

Qu. Same thing, different binder: TYTQDFNKF [… (SEQ ID No 208)]
Ans. 50 to 75%

Qu. Same thing, different binder: LYITEPKTI [… (SEQ ID No 287)]
Ans. 50 to 75%

Qu. Same thing, different binder: EYNQWFTKL [… (SEQ ID No 176)]
Ans. 50 to 75%

Qu. Same thing, different binder: VYVGGGQIIHL [… (SEQ ID No 174)]
Ans. 50 to 75%

Qu. Same thing, different binder: IYTMIYRNL [… (SEQ ID No 210)]
Ans. > 75%

Qu. Same thing, different binder: LYHDIFSRL [… (SEQ ID No 271)]
Ans. > 75%

Qu. Same thing, different binder: TYELRYFQI [… (SEQ ID No 204)]
Ans. > 75%
